Test: Plasma clearance in Sprague-Dawley rat
Format: ADME, organism-based
Conditions: read-out: AUC
observed property: clearance

* CC(C)N1CCN(C(=O)[C@H]2CC23CCN(C2CCOCC2)CC3)CC1 | 53 mL/min/kg

* * *

Assay: Equilibrium solubility of the compound at pH 7.4
Format: physicochemical
Details: buffer
observed property: solubility thermodynamic

* O=C(C1CC12CCC(C1CCCCC1)CC2)N1CCN(C2CCC2)CC1 (racemic) | 1 µM
* CC(C)N1CCN(C(=O)[C@H]2CC23CCN(C2CCOCC2)CC3)CC1 | > 500 µM
* CC(C)N1CCN(C(=O)C2CC23CCN(C2CCOCC2)CC3)CC1 (racemic) | > 500 µM
* CS(=O)(=O)N1CCC2(CC1)CC(C(=O)N1CCN(C3CCC3)CC1)C2 | > 500 µM
* O=C(C1CC12CCN(C1CCOCC1)CC2)N1CCN(C2CC2)CC1 (racemic) | > 500 µM

* * *

Test: Percentage unbound in human plasma
Format: ADME, cell-free
Catalogue of compounds with associated fraction unbound
observed property: fraction unbound

• O=C(C1CC12CCN(C1CCOCC1)CC2)N1CCN(C2CCCC2)CC1 (racemic) = 0.5
• CC(C)N1CCN(C(=O)C2CC23CCN(C2CCOCC2)CC3)CC1 (racemic) = 0.87
• O=C(C1CC12CCN(C1CCOCC1)CC2)N1CCN(C2CCC2)CC1 (racemic) = 0.91
• CS(=O)(=O)N1CCC2(CC1)CC(C(=O)N1CCN(C3CCC3)CC1)C2 = 0.67
• O=C(C1CC2(CCN(C3CCOCC3)CC2)C1)N1CCN(C2CCC2)CC1 = 0.51
• O=C(C1CC12CCN(C1CCCCC1)CC2)N1CCN(C2CCCCC2)CC1 (racemic) = 0.81

* * *

Assay: Octanol-water partition coefficient, log D of the compound by shake flask HPLC analysis
Format: physicochemical
Catalogue of compounds with associated logD
observed property: logD

- O=C(N1CCCN(C2CCC2)CC1)N1CCC2(CCN(S(=O)(=O)c3ccccc3)CC2)C1: 1.71
- CC(C)N1CCN(C(=O)N2CCC3(CCCN(C4CCOCC4)C3)C2)CC1 (stereo not given): -0.19
- O=C(c1ccccc1)N1CCC2(CCCN(C(=O)N3CCCN(C4CCC4)CC3)C2)CC1: 1.62
- O=C(C1CC2(CCN(C3CCOCC3)CC2)C1)N1CCCN(C2CCC2)CC1: -0.89
- O=C(C1CC12CCNCC2)N1CCN(C2CCCCC2)CC1 (racemic): -1
- O=C(c1ccccc1)N1CCC2(CC1)CC(C(=O)N1CCN(C3CCC3)CC1)C2: 2.09
- CC(C)N1CCN(C(=O)[C@H]2CC23CCN(C2CCOCC2)CC3)CC1: -0.26
- O=C(N1CCN(C2CCC2)CC1)N1CCC2(CCN(S(=O)(=O)c3ccccc3)CC2)C1: 2.27
- O=C(N1CCCN(C2CCC2)CC1)N1CCC2(CCCN(S(=O)(=O)c3ccccc3)C2)C1 (stereo not given): 1.74
- O=C(C1CC12CCN(C1CCOCC1)CC2)N1CCN(C2CCC2)CC1 (racemic): 0.24

* * *

Assay: Half life in rat at 1.8 umol/kg, iv
Assay type: ADME, organism-based
Details: in vivo
observed property: half-life

- CC(C)S(=O)(=O)N1CCC2(CCN(C(=O)N3CCCN(C4CCC4)CC3)C2)CC1: 36 min

* * *

Assay: Volume of distribution at steady state in rat at 2.4 umol/kg, iv
Assay type: ADME, organism-based
Conditions: in vivo, read-out: Vdss
observed property: Vd (L/kg)

* O=C(C1CC2(CCN(C3CCOCC3)CC2)C1)N1CCN(C2CCC2)CC1 | 74

* * *

Assay: Volume of distribution at steady state in rat at 3 umol/kg, iv
Assay type: ADME, organism-based
Conditions: in vivo, read-out: Vdss
observed property: Vd (L/kg)

* CC(C)N1CCN(C(=O)[C@H]2CC23CCN(C2CCOCC2)CC3)CC1 | 34.6

* * *

Assay: Tmax in Sprague-Dawley rat 3 umol/kg, po
Type: ADME, organism-based
Settings: in vivo
observed property: Tmax (h)

• CC(C)N1CCN(C(=O)[C@H]2CC23CCN(C2CCOCC2)CC3)CC1 = 6

* * *

Test: Percentage unbound in rat plasma
Format: ADME, cell-free
observed property: fraction unbound

• O=C(C1CC12CCN(C1CCCCC1)CC2)N1CCN(C2CCCCC2)CC1 (racemic) = 0.62
• CC(C)N1CCN(C(=O)[C@H]2CC23CCN(C2CCOCC2)CC3)CC1 = 0.87
• O=C(C1CC12CCN(C1CCOCC1)CC2)N1CCN(C2CCC2)CC1 (racemic) = 0.8
• CC(C)N1CCN(C(=O)C2CC23CCN(C2CCOCC2)CC3)CC1 (racemic) = 0.69
• O=C(C1CC12CCN(C1CCOCC1)CC2)N1CCN(C2CCCC2)CC1 (racemic) = 0.65

* * *

Assay: Apparent half life in Sprague-Dawley rat
Type: ADME, organism-based
Settings: in vivo, read-out: t1/2(app) (converted)
observed property: half-life (h)

- CC(C)N1CCN(C(=O)[C@H]2CC23CCN(C2CCOCC2)CC3)CC1: 15

* * *

Molecular target: UniProt Q9Y5N1
Sequence (Q9Y5N1 whole entry): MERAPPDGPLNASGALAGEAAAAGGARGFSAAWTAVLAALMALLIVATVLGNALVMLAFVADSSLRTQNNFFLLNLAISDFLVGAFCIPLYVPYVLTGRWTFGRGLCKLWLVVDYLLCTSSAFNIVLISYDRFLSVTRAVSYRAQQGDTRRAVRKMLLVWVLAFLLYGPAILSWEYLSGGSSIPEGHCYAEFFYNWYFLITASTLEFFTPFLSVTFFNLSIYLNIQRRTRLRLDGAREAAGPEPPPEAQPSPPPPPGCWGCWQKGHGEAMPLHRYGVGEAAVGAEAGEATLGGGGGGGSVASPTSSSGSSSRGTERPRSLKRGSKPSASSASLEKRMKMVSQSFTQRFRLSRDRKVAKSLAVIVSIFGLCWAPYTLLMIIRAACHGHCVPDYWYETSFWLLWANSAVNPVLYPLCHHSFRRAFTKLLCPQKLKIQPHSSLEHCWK
Experiment: Antagonist activity at human histamine H3 receptor long form expressed in CHOK1 cells assessed as inhibition of R-alpha-methylhistamine-induced [35S]GTPgammaS binding after 3 hrs by scintillation proximity assay
observed property: log10 IC50 (log10 of the value in nM)

* O=C(C1CC12CCN(CCc1ccccc1)CC2)N1CCN(C2CCCCC2)CC1 (racemic) | 1.20
* O=C(C1CC12CCNCC2)N1CCN(C2CCCCC2)CC1 (racemic) | 2.56
* CC(C)N1CCN(C(=O)N2CCC3(CCN(C4CCOCC4)CC3)C2)CC1 | 1.51
* O=C(N1CCCN(C2CCC2)CC1)N1CCC2(CCCN(C3CCOCC3)C2)C1 (stereo not given) | 0.64
* O=C(C1CC12CCN(C1CCC1)CC2)N1CCN(C2CCOCC2)CC1 (racemic) | 1.82

* * *

Assay: Intrinsic clearance in human liver microsomes
Format: ADME
Settings: read-out: CLH
Catalogue of compounds with associated microsomal CLint
observed property: microsomal CLint

* O=C(C1CC12CCN(C1CCOCC1)CC2)N1CCN(C2CCCC2)CC1 (racemic) | 7.2 µL/min/mg
* O=C(C1CC12CCN(C1CCOCC1)CC2)N1CCN(C2CC2)CC1 (racemic) | < 4 µL/min/mg
* CC(C)N1CCN(C(=O)[C@H]2CC23CCN(C2CCOCC2)CC3)CC1 | < 4 µL/min/mg
* CS(=O)(=O)N1CCC2(CC1)CC(C(=O)N1CCN(C3CCC3)CC1)C2 | 8.3 µL/min/mg
* O=C(C1CC2(CCN(C3CCOCC3)CC2)C1)N1CCN(C2CCC2)CC1 | < 4 µL/min/mg
* O=C(C1CC12CCN(C1CCCCC1)CC2)N1CCN(C2CCCCC2)CC1 (racemic) | 14 µL/min/mg
* CC(C)N1CCN(C(=O)C2CC3(CCN(C4CCOCC4)CC3)C2)CC1 | < 4 µL/min/mg
* O=C(C1CC12CCN(C1CCOCC1)CC2)N1CCN(C2CCC2)CC1 (racemic) | 29 µL/min/mg
* CC(C)S(=O)(=O)N1CCC2(CCN(C(=O)N3CCCN(C4CCC4)CC3)C2)CC1 | 20 µL/min/mg
* O=C(c1ccccc1)N1CCC2(CC1)CCN(C(=O)N1CCN(C3CCC3)CC1)C2 | 18 µL/min/mg
* CC(C)N1CCN(C(=O)C2CC23CCN(C2CCOCC2)CC3)CC1 (racemic) | < 4 µL/min/mg

* * *

Assay: Half life in rat at 2.3 umol/kg, iv
Assay type: ADME, organism-based
Conditions: in vivo
observed property: half-life (h)

- O=C(c1ccccc1)N1CCC2(CC1)CCN(C(=O)N1CCN(C3CCC3)CC1)C2: 1.1

* * *

Target: UniProt:Q9Y5N1
Assay: Antagonist activity at human histamine H3 receptor long form expressed in CHOK1 cells assessed as inhibition of R-alpha-methylhistamine-induced [35S]GTPgammaS binding after 3 hrs by scintillation proximity assay
pIC50: −log10 of the molar value.
observed property: pIC50

* CC(C)N1CCCN(C(=O)C2CC3(CCN(C(=O)c4ccccc4)CC3)C2)CC1 | 7.92
* O=C(C1CC2(CCN(C3CCOCC3)CC2)C1)N1CCCN(C2CCC2)CC1 | 9.10
* CC(C)N1CCN(C(=O)[C@H]2CC23CCN(C2CCOCC2)CC3)CC1 | 8.08
* O=C(C1CC2(CCN(c3ccccc3)CC2)C1)N1CCN(C2CCC2)CC1 | 7.18
* O=C(C1CC12CCN(C1CCOCC1)CC2)N1CCN(C2CCC2)CC1 (racemic) | 8.44
* O=C(c1ccccc1)N1CCC2(CC1)CCN(C(=O)N1CCCN(C3CCC3)CC1)C2 | 8.44
* CS(=O)(=O)N1CCC2(CC1)CC(C(=O)N1CCN(C3CCC3)CC1)C2 | 7.96
* O=C(C1CC2(CCN(C3CCOCC3)CC2)C1)N1CCN(C2CCC2)CC1 | 8.72
* CC(C)N1CCN(C(=O)N2CC3(CCN(C4CCOCC4)CC3)C2)CC1 | 6.05
* O=C(C1CC12CCN(C1CCOCC1)CC2)N1CCN(C2CCCCC2)CC1 (racemic) | 7.92
* O=C(C1CC2(CCN(C3CCOCC3)CC2)C1)N1CCN(C2CCCCC2)CC1 | 8.80
* O=C(c1ccccc1)N1CCC2(CC1)CCN(C(=O)C1CCN(C3CCC3)CC1)C2 | 6.47
* CC(C)N1CCN(C(=O)C2CC23CCN(C2CCOCC2)CC3)CC1 (racemic) | 8.49
* O=C(c1ccccc1)N1CCC2(CCCN(C(=O)N3CCCN(C4CCC4)CC3)C2)CC1 | 7.74
* CC(C)N1CCN(C(=O)C2CC3(CCN(C4CCOCC4)CC3)C2)CC1 | 8.77
* O=C(N1CCCN(C2CCC2)CC1)N1CCC2(CCCN(S(=O)(=O)c3ccccc3)C2)C1 (centres undefined) | 8.19
* O=C(N1CCN(C2CCC2)CC1)N1CCC2(CCN(S(=O)(=O)c3ccccc3)CC2)C1 | 7.68
* O=C(N1CCCN(C2CCC2)CC1)N1CCC2(CCN(S(=O)(=O)c3ccccc3)CC2)C1 | 8.57
* CC(C)N1CCC2(CC1)CC2C(=O)N1CCN(C2CCCCC2)CC1 (racemic) | 7.72
* CC(C)N1CCN(C(=O)N2CCC3(CCCN(C4CCOCC4)C3)C2)CC1 (centres undefined) | 6.85
* O=C(c1ccccc1)N1CCC2(CC1)CCN(C(=O)N1CCN(C3CCC3)CC1)C2 | 7.89
* CC(C)N1CCN(C(=O)[C@@H]2CC23CCN(C2CCOCC2)CC3)CC1 | 7.06
* CC(C)N1CCCN(C(=O)C2CC3(CCN(C4CCOCC4)CC3)C2)CC1 | 7.85
* O=C(C1CC2(CCN(C3CCOCC3)CC2)C1)N1CCN2CCCCC2C1 (centres undefined) | 8.20
* O=C(C1CC12CCN(c1ccncc1)CC2)N1CCN(C2CCCCC2)CC1 (racemic) | 7.08
* O=C(C1CC12CCN(C1CCOCC1)CC2)N1CCCN(C2CCC2)CC1 (racemic) | 7.77
* CN1CCN(C(=O)C2CC23CCN(C2CCOCC2)CC3)CC1 (racemic) | 5.96
* CC(C)S(=O)(=O)N1CCC2(CCN(C(=O)N3CCCN(C4CCC4)CC3)C2)CC1 | 8.49
* O=C(c1ccccc1)N1CCCC2(CCN(C(=O)N3CCCN(C4CCC4)CC3)C2)C1 (centres undefined) | 8.40

Attribution: ChEMBL document CHEMBL3124793
